Test: Inhibition of Saccharomyces cerevisiae alpha-glucosidase using 4-nitrophenyl alpha-D-glucopyranoside as substrate preincubated for 5 mins followed by substrate addition measured after 10 mins
MEASURED_PARAMETER: IC50 (µM)
Lab book: enter the figure in µM, no units written.

COC(=O)C(c1c([N+](=O)[O-])cn2c1CCCC2)S(=O)(=O)Cc1ccc(C)cc1 (centres undefined) :: 65
O=[N+]([O-])c1cn2c(c1CS(=O)(=O)Cc1ccccc1)CCCC2 :: 29

Could you now consider this next compound?
*Q* So what's the measured IC50 for this one? COC(=O)C(c1c([N+](=O)[O-])cn2c1CCCC2)S(=O)(=O)Cc1ccccc1 (centres undefined)
*A* 19.8

----------
Readings of pIC50 for the listed compounds
Assay: Inhibition of Saccharomyces cerevisiae alpha-glucosidase using 4-nitrophenyl alpha-D-glucopyranoside as substrate preincubated for 5 mins followed by substrate addition measured after 10 mins
For clarity, pIC50 is expressed as the negative log10 of concentration in mol/L.

OC[C@H]1NC[C@H](O)[C@@H](O)[C@@H]1O [DUVOGLUSTAT] :: 3.69
COC(=O)C(c1c([N+](=O)[O-])cn2c1CCCC2)S(C)(=O)=O (stereo unspecified) :: 5.10
COC(=O)C(c1c([N+](=O)[O-])cn2c1CCC2)S(C)(=O)=O (stereo unspecified) :: 4.32
CS(=O)(=O)Cc1c([N+](=O)[O-])cn2c1CCCC2 :: 4.14

Could you now consider this next compound?
*Q* So what's the measured pIC50 for this one? COC(=O)C(c1c([N+](=O)[O-])cn2c1CCCCC2)S(C)(=O)=O (stereo unspecified)
*A* 3.91

----------
Experiment: Mixed inhibition of Saccharomyces cerevisiae alpha-glucosidase assessed as enzyme inhibitor substrate constant up to 12.5 uM using 4-nitrophenyl alpha-D-glucopyranoside as substrate after 2 mins by Lineweaver-Burk plot analysis
MEASURED_PARAMETER: pKi
For clarity, pKi is expressed as the negative log10 of concentration in mol/L.

*Q* So what's the measured pKi for this one? COC(=O)C(c1c([N+](=O)[O-])cn2c1CCCC2)S(C)(=O)=O (stereo unspecified)
*A* 5.12
